assay: Cytotoxicity Assay (CellTiter-Glo); format: cell-based; conditions: human, Hep G2 cells (ATCC HB-8065); 24 h exposure, cell viability; read-out: HepG2 CC50
Structures can show the parent of a compound that is named as a salt.
Parameter Measured: CC50 at 24 h

NCCNS(=O)(=O)c1ccc(-c2ccn(S(N)(=O)=O)c2C(=O)O)cc1 :: > 256 µg/mL
NS(=O)(=O)n1ccc(-c2ccc(C3CCNCC3)cc2)c1C(=O)O [Example 34, hydrochloride] :: > 256 µg/mL
NS(=O)(=O)n1ccc(-c2ccc(NS(=O)(=O)C3CC3)cc2)c1C(=O)O :: > 256 µg/mL
NS(=O)(=O)n1ccc(-c2ccc(S(=O)(=O)N3CCNCC3)cc2)c1C(=O)O :: > 256 µg/mL
CN(C)S(=O)(=O)N1CCC(c2ccc(-c3ccn(S(N)(=O)=O)c3C(=O)O)cc2)CC1 :: 66.4 µg/mL

Next, consider the following compound.
Task item: // CC50 at 24 h lookup, key: Nc1ncc(-c2ccn(S(N)(=O)=O)c2C(=O)O)cc1F
Reply: > 256 µg/mL
